# Tested on: Mycobacterium tuberculosis Erdman (pMV306hsp+LuxG13)
# protocol_description: GRinf, normalised growth-rate inhibition at infinite dose (GR value (unitless, negative = killing)); higher = less potent
# reported_conditions: growth medium: cholesterol 0.05 mM; time point: terminal time point
Below is a list of entries, each paired with its recorded GRinf value.
assay_readout: GRinf

• COc1nc2ccc(Br)cc2cc1[C@@H](c1ccccc1)[C@@](O)(CCN(C)C)c1cccc2ccccc12 [bedaquiline] + CC(=O)NC[C@H]1CN(c2ccc(N3CCSCC3)c(F)c2)C(=O)O1 [sutezolid] = -0.972
• CO[C@H]1/C=C/O[C@@]2(C)Oc3c(C)c(O)c4c(O)c(c(/C=N/N5CCN(C6CCCC6)CC5)c(O)c4c3C2=O)NC(=O)/C(C)=C\C=C\[C@H](C)[C@H](O)[C@@H](C)[C@@H](O)[C@@H](C)[C@H](OC(C)=O)[C@@H]1C [rifapentine] + CC(=O)NC[C@H]1CN(c2ccc(N3CCSCC3)c(F)c2)C(=O)O1 [sutezolid] = -1
• CC[C@@H](CO)NCCN[C@@H](CC)CO [ethambutol] + CC(=O)NC[C@H]1CN(c2ccc(N3CCSCC3)c(F)c2)C(=O)O1 [sutezolid] = -0.945
• NNC(=O)c1ccncc1 [isoniazid] + CC(=O)NC[C@H]1CN(c2ccc(N3CCSCC3)c(F)c2)C(=O)O1 [sutezolid] = -1
• CC(C)/N=c1\cc2n(-c3ccc(Cl)cc3)c3ccccc3nc-2cc1Nc1ccc(Cl)cc1 [clofazimine] + CC(=O)NC[C@H]1CN(c2ccc(N3CCSCC3)c(F)c2)C(=O)O1 [sutezolid] = -0.651

====

# Test system: Mycobacterium tuberculosis Erdman (pMV306hsp+LuxG13)
# protocol_description: Einf, effect of the drug pair at infinite dose (maximum growth inhibition) (fraction inhibition (0-1)); higher = more potent; extreme values may be limits of the assay
# reported_conditions: growth medium: cholesterol 0.05 mM; time point: constant time point
Below is a list of entries, each paired with its recorded Einf value.
assay_readout: Einf

- CC(C)/N=c1\cc2n(-c3ccc(Cl)cc3)c3ccccc3nc-2cc1Nc1ccc(Cl)cc1 [clofazimine] + CC(C)=CCC/C(C)=C/CNCCNC1C2CC3CC(C2)CC1C3 [SQ109]: 0.758
- NNC(=O)c1ccncc1 [isoniazid] + CC(C)=CCC/C(C)=C/CNCCNC1C2CC3CC(C2)CC1C3 [SQ109]: 0.84
- CO[C@H]1/C=C/O[C@@]2(C)Oc3c(C)c(O)c4c(O)c(c(/C=N/N5CCN(C6CCCC6)CC5)c(O)c4c3C2=O)NC(=O)/C(C)=C\C=C\[C@H](C)[C@H](O)[C@@H](C)[C@@H](O)[C@@H](C)[C@H](OC(C)=O)[C@@H]1C [rifapentine] + CC(=O)NC[C@H]1CN(c2ccc(N3CCSCC3)c(F)c2)C(=O)O1 [sutezolid]: 1
- CC[C@@H](CO)NCCN[C@@H](CC)CO [ethambutol] + CC(=O)NC[C@H]1CN(c2ccc(N3CCSCC3)c(F)c2)C(=O)O1 [sutezolid]: 1
- COc1c(N2C[C@@H]3CCCN[C@@H]3C2)c(F)cc2c(=O)c(C(=O)O)cn(C3CC3)c12 [moxifloxacin] + CC(=O)NC[C@H]1CN(c2ccc(N3CCSCC3)c(F)c2)C(=O)O1 [sutezolid]: 0.744
- O=[N+]([O-])c1cn2c(n1)OC[C@@H](OCc1ccc(OC(F)(F)F)cc1)C2 [pretomanid] + CC(=O)NC[C@H]1CN(c2ccc(N3CCSCC3)c(F)c2)C(=O)O1 [sutezolid]: 0.865
- NC(=O)c1cnccn1 [pyrazinamide] + CC(=O)NC[C@H]1CN(c2ccc(N3CCSCC3)c(F)c2)C(=O)O1 [sutezolid]: 1

====

# Test system: Mycobacterium tuberculosis Erdman (pMV306hsp+LuxG13)
# protocol_description: log2 fractional inhibitory concentration at 50% inhibition (log2 FIC); higher = more antagonistic
# reported_conditions: growth medium: valerate 0.1%; time point: terminal time point
Below is a list of entries, each paired with its recorded log2 fractional inhibitory concentration value.
assay_readout: log2 fractional inhibitory concentration

• NNC(=O)c1ccncc1 [isoniazid] + CC(C)=CCC/C(C)=C/CNCCNC1C2CC3CC(C2)CC1C3 [SQ109] = 0.109
• NC(=O)c1cnccn1 [pyrazinamide] + CC(C)=CCC/C(C)=C/CNCCNC1C2CC3CC(C2)CC1C3 [SQ109] = -0.462
• CO[C@H]1/C=C/O[C@@]2(C)Oc3c(C)c(O)c4c(O)c(c(/C=N/N5CCN(C)CC5)c(O)c4c3C2=O)NC(=O)/C(C)=C\C=C\[C@H](C)[C@H](O)[C@@H](C)[C@@H](O)[C@@H](C)[C@H](OC(C)=O)[C@@H]1C [rifampicin] + CC(C)=CCC/C(C)=C/CNCCNC1C2CC3CC(C2)CC1C3 [SQ109] = -0.128
• CC[C@@H](CO)NCCN[C@@H](CC)CO [ethambutol] + CC(C)=CCC/C(C)=C/CNCCNC1C2CC3CC(C2)CC1C3 [SQ109] = 0.656

====

# System: Mycobacterium tuberculosis Erdman (pMV306hsp+LuxG13)
# protocol_description: Einf, effect of the drug pair at infinite dose (maximum growth inhibition) (fraction inhibition (0-1)); higher = more potent; extreme values may be limits of the assay
# reported_conditions: growth medium: cholesterol 0.05 mM; time point: constant time point
Below is a list of entries, each paired with its recorded Einf value.
assay_readout: Einf

• NC(=O)c1cnccn1 [pyrazinamide] + CC(C)=CCC/C(C)=C/CNCCNC1C2CC3CC(C2)CC1C3 [SQ109] = 0.894
• NNC(=O)c1ccncc1 [isoniazid] + CC(=O)NC[C@H]1CN(c2ccc(N3CCSCC3)c(F)c2)C(=O)O1 [sutezolid] = 0.988
• COc1nc2ccc(Br)cc2cc1[C@@H](c1ccccc1)[C@@](O)(CCN(C)C)c1cccc2ccccc12 [bedaquiline] + CC(C)=CCC/C(C)=C/CNCCNC1C2CC3CC(C2)CC1C3 [SQ109] = 0.82
• CC[C@@H](CO)NCCN[C@@H](CC)CO [ethambutol] + CC(C)=CCC/C(C)=C/CNCCNC1C2CC3CC(C2)CC1C3 [SQ109] = 0.732
• CC(C)/N=c1\cc2n(-c3ccc(Cl)cc3)c3ccccc3nc-2cc1Nc1ccc(Cl)cc1 [clofazimine] + CC(=O)NC[C@H]1CN(c2ccc(N3CCSCC3)c(F)c2)C(=O)O1 [sutezolid] = 1
• COc1nc2ccc(Br)cc2cc1[C@@H](c1ccccc1)[C@@](O)(CCN(C)C)c1cccc2ccccc12 [bedaquiline] + CC(=O)NC[C@H]1CN(c2ccc(N3CCSCC3)c(F)c2)C(=O)O1 [sutezolid] = 1

====

# System: Mycobacterium tuberculosis Erdman (pMV306hsp+LuxG13)
# protocol_description: AUC25, normalised area under the dose-response curve up to IC25 (normalised AUC (unitless)); higher = more potent
# reported_conditions: growth medium: cholesterol 0.05 mM; time point: constant time point
Below is a list of entries, each paired with its recorded AUC25 value.
assay_readout: AUC25

* COc1nc2ccc(Br)cc2cc1[C@@H](c1ccccc1)[C@@](O)(CCN(C)C)c1cccc2ccccc12 [bedaquiline] + CC(=O)NC[C@H]1CN(c2ccc(N3CCSCC3)c(F)c2)C(=O)O1 [sutezolid] | 0.0778
* NNC(=O)c1ccncc1 [isoniazid] + CC(C)=CCC/C(C)=C/CNCCNC1C2CC3CC(C2)CC1C3 [SQ109] | 0.1
* NC(=O)c1cnccn1 [pyrazinamide] + CC(=O)NC[C@H]1CN(c2ccc(N3CCSCC3)c(F)c2)C(=O)O1 [sutezolid] | 0.0696
* COc1nc2ccc(Br)cc2cc1[C@@H](c1ccccc1)[C@@](O)(CCN(C)C)c1cccc2ccccc12 [bedaquiline] + CC(C)=CCC/C(C)=C/CNCCNC1C2CC3CC(C2)CC1C3 [SQ109] | 0.085
* CC[C@@H](CO)NCCN[C@@H](CC)CO [ethambutol] + CC(=O)NC[C@H]1CN(c2ccc(N3CCSCC3)c(F)c2)C(=O)O1 [sutezolid] | 0.121
* CC(C)/N=c1\cc2n(-c3ccc(Cl)cc3)c3ccccc3nc-2cc1Nc1ccc(Cl)cc1 [clofazimine] + CC(C)=CCC/C(C)=C/CNCCNC1C2CC3CC(C2)CC1C3 [SQ109] | 0.0691

====

# System: Mycobacterium tuberculosis Erdman (pMV306hsp+LuxG13)
# protocol_description: GRinf, normalised growth-rate inhibition at infinite dose (GR value (unitless, negative = killing)); higher = less potent
# reported_conditions: growth medium: acidic pH 5.7, glycerol; time point: terminal time point
Below is a list of entries, each paired with its recorded GRinf value.
assay_readout: GRinf

* NC(=O)c1cnccn1 [pyrazinamide] + CC(=O)NC[C@H]1CN(c2ccc(N3CCSCC3)c(F)c2)C(=O)O1 [sutezolid] | -0.272
* CO[C@H]1/C=C/O[C@@]2(C)Oc3c(C)c(O)c4c(O)c(c(/C=N/N5CCN(C)CC5)c(O)c4c3C2=O)NC(=O)/C(C)=C\C=C\[C@H](C)[C@H](O)[C@@H](C)[C@@H](O)[C@@H](C)[C@H](OC(C)=O)[C@@H]1C [rifampicin] + CC(=O)NC[C@H]1CN(c2ccc(N3CCSCC3)c(F)c2)C(=O)O1 [sutezolid] | -0.205
* CO[C@H]1/C=C/O[C@@]2(C)Oc3c(C)c(O)c4c(O)c(c(/C=N/N5CCN(C6CCCC6)CC5)c(O)c4c3C2=O)NC(=O)/C(C)=C\C=C\[C@H](C)[C@H](O)[C@@H](C)[C@@H](O)[C@@H](C)[C@H](OC(C)=O)[C@@H]1C [rifapentine] + CC(=O)NC[C@H]1CN(c2ccc(N3CCSCC3)c(F)c2)C(=O)O1 [sutezolid] | -0.263
* CC[C@@H](CO)NCCN[C@@H](CC)CO [ethambutol] + CC(=O)NC[C@H]1CN(c2ccc(N3CCSCC3)c(F)c2)C(=O)O1 [sutezolid] | -0.214
